The values you see were collected from PubChem BioAssay (NCI).

# Tested on: RXF 393 renal
# methodSummary: NCI tumour cell line growth inhibition, 48 h
# label = Y if TGI >= 4 µM else N

> print(dat)
                                    compound  experimentalsystem  classname
 1  Cc1cn(C2OC(CO)C(O)C2O)c(=O)[nH]c1=O (stereo not given)       RXF 393 renal          Y
 2  C=Cc1ccccc1C1C(C(=O)OCC)=C(C)N=C2OC(C(=O)OC)C(=O)N21 (stereo not given)       RXF 393 renal          Y
 3  COc1cccc(C2c3cc4c(cc3OC(NNc3ccccc3)C2C)OCO4)c1OC (stereo not given)       RXF 393 renal          Y
 4                O=C(/C=C/c1ccccc1O)c1cccs1       RXF 393 renal          Y
 5  O=C(O)CCC[C@]1(O)O[C@@]2(CCCC2=O)[C@]2(O)CCC[C@@]21O       RXF 393 renal          Y
 6  CC(=O)O[C@H]1[C@@H]2OC(=O)C3(CC3)C2C[C@H]2O[C@]2(C)CC/C=C(\C)CCC[C@@H]1C (stereo not given in full)       RXF 393 renal          Y
 7  Cc1ccccc1N1C(N)=C(C#N)C(C#N)(C#N)C1c1ccccc1 (stereo not given)       RXF 393 renal          Y
 8  [O-][n+]1c2cc(CBr)c(CBr)cc2[n+]([O-])c2c(O)cccc21       RXF 393 renal          N
 9     CN(CCCN(C)Cc1ccc(Cl)c(Cl)c1)CCN1CCCC1       RXF 393 renal          Y
10  CN1CCN(Cc2ccc(NC(=O)c3cncc(C#Cc4cnc5ccc(Cl)nn45)c3)cc2C(F)(F)F)CC1       RXF 393 renal          N

Please indicate if the recorded TGI for Cc1oc2nc[nH]c(=O)c2c1C(=O)/C=C/c1ccc(Br)cc1 meets or exceeds 4 µM.
N

Please indicate if the recorded TGI for CC1(C)OC(CCC#N)CN1C(=O)OCc1ccccc1 (stereo not given) meets or exceeds 4 µM.
Y

Please indicate if the recorded TGI for COc1ccc(CNC(=O)[C@H](Cc2ccc(O)cn2)NC(C)=O)cc1OC meets or exceeds 4 µM.
Y

Please indicate if the recorded TGI for C=C(C)C12OC3(c4ccccc4)OC1C1C4OC4(CO)C(O)C4(O)C(=O)C(C)=CC4C1(O3)C(C)C2OC(=O)/C=C/C=C/c1ccccc1 (stereo not given) meets or exceeds 4 µM.
N

----------
# Test system: OVCAR-5 ovarian
# methodSummary: NCI tumour cell line growth inhibition, 48 h
Measured TGI of individual entries

Measured TGI, N#CCCN(CCC#N)c1ccc(/C=C2\N=C(c3cc([N+](=O)[O-])ccc3Cl)N(S(=O)(=O)c3ccccc3)C2=O)cc1 : > 100 µM

Measured TGI, O=C(O)CCC[C@]1(O)O[C@@]2(CCCC2=O)[C@]2(O)CCC[C@@]21O : > 100 µM

Measured TGI, Cc1cc(C)nc(NS(=O)(=O)c2ccc(Nc3c4ccccc4nc4c(C(=O)N5CCN(CCO)CC5)ccc(Cl)c34)cc2)n1 : > 100 µM

Measured TGI, CCCC12Cc3c(OC)ccc(OC)c3CC(Cc3c(OC)ccc(OC)c31)C2=O (centres undefined) : > 100 µM

Measured TGI, CCCCCCCCCCCCCC(=S)N/C=C/OC : > 100 µM

----------
Measured TGI of individual entries
# Tested on: 786-0 renal
# methodSummary: NCI tumour cell line growth inhibition, 48 h

Measured TGI, COC(=O)CCC(C)[C@H]1CCC2C3C(C[C@H](OC(C)=O)[C@@]21C)[C@@]1(C)CCC2(C[C@H]1C[C@H]3OC(C)=O)OOC1(CCC(C(C)(C)C)CC1)OO2 (some centres not stated) : > 100 µM

Measured TGI, C=CCN=C1N=C(C)C(C(=O)OCC)S1 (configuration not stated) : > 100 µM

Measured TGI, COc1c(O)ccc(C2=Cc3ccc(O)cc3OC2)c1OC : > 63.5 µM

----------
Measured TGI of individual entries
# Test system: MALME-3M melanoma
# methodSummary: NCI tumour cell line growth inhibition, 48 h
Quick reminder: number only, in µM, skip the unit.

Example molecules with recorded TGI:
molecule	numericReadout
Oc1cc(Cn2cnc3c(Cl)nc(Cl)nc32)ccc1C12CC3CC(CC(C3)C1)C2	27.8
CN(C)CCn1c(=O)nc2c3c(c([N+](=O)[O-])ccc31)Nc1ccc(O)cc1-2	18
CC(C)=C[C@@H]1C[C@H](C)[C@H]2CC[C@H](C)c3c(O)c(OC4OCC(O)C(O)C4O)c(C)c1c32 (some centres undefined)	27.6
COc1ccc2[nH]c(=O)c(/C=C/C(=O)c3ccccc3OC)cc2c1	8.09
CSc1cc(Cl)c(C)cc1S(=O)(=O)NC(=O)Nc1ccc(Cl)cc1	85.1

Considering CC(=O)O[C@H](C[C@@H](C)[C@H]1C(=O)[C@H](O)[C@@]2(C)C3CC[C@H]4C(C)(C)[C@@H](OC5OCC(O)C(O)C5O)CC[C@@]45C[C@@]35CC[C@]12C)[C@@H]1OC1(C)C (some centres undefined) , its TGI with MALME-3M melanoma was recorded as 32.4

----------
# Tested on: HL-60(TB) leukemia
# methodSummary: NCI tumour cell line growth inhibition, 48 h
Measured TGI of individual entries

molecule	result
COc1c(Cl)nc2ccccc2c1N=[N+]=[N-]	> 100 µM
COc1cc(/C=C\c2cc(/C=C\c3ccc(O)c(OC)c3)n(C(=O)COc3ccccc3)n2)ccc1O	0.901 µM
CCOC(=O)/C=C(\C)c1ccc(Cl)cc1	> 100 µM
S=c1[nH]nc(C23CC4CC(CC(C4)C2)C3)n1-c1ccc(Cl)cc1	8.41 µM
Cc1cc(C)nc(NS(=O)(=O)c2ccc(Nc3c4ccccc4nc4c(C(=O)N5CCN(CCO)CC5)ccc(Cl)c34)cc2)n1	> 100 µM

Measured TGI, [O-][n+]1c2cc3c(cc2[n+]([O-])c2c(O)cccc21)CN(CCN1CCOCC1)C3 : 36.8 µM

Measured TGI, CC(=O)OCC1OC(n2c(-c3ccc(Cl)cc3)cc(-c3ccccc3)c(C#N)c2=S)C(OC(C)=O)C(OC(C)=O)C1OC(C)=O (stereo not given) : 17.4 µM

Measured TGI, C/C(=N\NC(=O)c1ccccc1N)c1ccccc1O : > 100 µM

Measured TGI, C#CCN(Cc1ccc2nc(-c3ccccc3)c(Cl)nc2c1)c1cc(OC)c(OC)c(OC)c1 : > 100 µM

Measured TGI, CCNC(=O)OCC1C2=C(C(=O)C(C)=C(N)C2=O)N2CC3C(N3C)C12OC (stereo not given) : > 44.1 µM

Measured TGI, Cc1cc(C)c(-n2c(-c3ccccc3)cs/c2=N\N=C2C=C(C(C)(C)C)C(=O)C(C(C)(C)C)=C2)c(C)c1 : > 100 µM

----------
Measured TGI of individual entries
# Tested on: XF 498 CNS
# methodSummary: NCI tumour cell line growth inhibition, 48 h
Where a SMILES comes first, the peptide text is derived from it. [ ]: non-standard residue; d: D form. The star is where a group is joined. ξ: configuration not given here. NMeF = CN[C@@H](Cc1ccccc1)C(=O)O; NMeN = CN[C@@H](CC(N)=O)C(=O)O; NMeV = CN[C@H](C(=O)O)C(C)C; ξNMeV = CNC(C(=O)O)C(C)C; Boc = CC(C)(C)OC(=O)*; ξNMeA = CNC(C)C(=O)O; ξV = CC(C)C(N)C(=O)O
Quick reminder: number only, in µM, skip the unit.

molecule	experimentalSystem	resultUnits	TGI
[O-][n+]1c2cc3c(cc2[n+]([O-])c2c(O)cccc21)CN(CCN1CCOCC1)C3	XF 498 CNS	µM	33.5
COC(=O)C(C)N(C)C(=O)[C@H](CC(N)=O)N(C)C(=O)[C@@H]1CCCN1C(=O)[C@H](C(C)C)N(C)C(=O)C(C(C)C)N(C)C(=O)[C@H](Cc1ccccc1)N(C)C(=O)C(NC(=O)OC(C)(C)C)C(C)C (some centres undefined) (Boc-[ξV][NMeF][ξNMeV][NMeV]P[NMeN][ξNMeA]-OMe)	XF 498 CNS	µM	28.9

Measured TGI, Cc1nc2c(nc1C)C(=O)C1=C(C2=O)C2C=CC1CC2 : 14.5

----------
# Test system: MOLT-4 leukemia
# methodSummary: NCI tumour cell line growth inhibition, 48 h
Measured TGI of individual entries

compound	TGI
COc1ccc2[nH]c(Cl)c(/C=C3/C(=O)N(c4ccccc4)c4ccccc43)c2c1	> 100 µM
CN(CCCN(C)Cc1ccc(Cl)c(Cl)c1)CCN1CCCC1	37.1 µM
CCO/C(O)=C(/C(=N)N1CCOCC1)C(=O)Nc1cccc(Cl)c1	> 100 µM
CC(C)CC(=O)[O-].N.N.N.N.N.[Co+3].[O-][Cl+3]([O-])([O-])[O-]	> 100 µM

Measured TGI, O=c1[nH]nc(NCCc2ccccc2)c2nnn(Cc3ccccc3)c12 : > 100 µM

Measured TGI, C=C1C(=O)O[C@H]2[C@H]1CC/C(COC(=O)NCc1c[nH]c3ccc(Br)cc13)=C\CC[C@@]1(C)O[C@@H]21 : 5.51 µM

Measured TGI, CCCCCCCCCCCCCCCCCCNc1nc(=O)n(C2CC(O)C(COP(=O)(O)OCC(COP(=O)(O)OC3C(CO)OC(n4ccc(N)nc4=O)C3O)OCCCCCCCCCCCCCCCCCC)O2)cc1F (stereo not drawn) : > 100 µM

Measured TGI, COC(=O)CCC(C)[C@H]1CCC2C3C(C[C@H](OC(C)=O)[C@@]21C)[C@@]1(C)CCC2(C[C@H]1C[C@H]3OC(C)=O)OOC1(CCC(C(C)(C)C)CC1)OO2 (stereo partly drawn) : > 100 µM
